tested on: U2OS; assay: cell viability relative to DMSO; higher = less toxic; details: 72 h; 100 nM
Assay Readout: cell viability (%)
Give bare numbers, in %.

# example entries with known answers
CN1CCN(C(c2ccccc2)c2ccc(Cl)cc2)CC1 (stereo not given) [chlorcyclizine] :: 99
C=C(NC(=O)C(=C)NC(=O)c1csc(C2=N[C@@H]3c4csc(n4)[C@H]4NC(=O)c5csc(n5)[C@H]([C@](C)(O)[C@@H](C)O)NC(=O)[C@H]5CSC(=N5)/C(=C/C)NC(=O)[C@H]([C@@H](C)O)NC(=O)c5csc(n5)[C@]3(CC2)NC(=O)[C@H](C)NC(=O)C(=C)NC(=O)[C@H](C)NC(=O)[C@H]([C@@H](C)CC)N[C@@H]2C=Cc3c([C@H](C)O)cc(nc3[C@H]2O)C(=O)O[C@@H]4C)n1)C(N)=O [thiostrepton] :: 95.8
COc1cc(F)c(C(C)C)cc1-c1ccc(C(F)(F)F)cc1CN1C(=O)O[C@H](c2cc(C(F)(F)F)cc(C(F)(F)F)c2)[C@@H]1C [anacetrapib] :: 101

// batch mode: one cell viability value per listed entry
1. O=S(=O)(NCC1CC1)c1ccc(Nc2nccc(N3CCCc4cc(O)ccc43)n2)cc1 [pyrintegrin]
2. O=C(Oc1cccc2cccnc12)c1ccccc1 [benzoxiquine]
3. CC(C)c1ccc(-c2cc(=O)c3ccccc3o2)cc1 [MN-64]
4. COc1cc(N2CCC(N(C)C)CC2)ccc1Nc1ncc(Cl)c(Nc2ccccc2P(C)(C)=O)n1
5. Cc1cc(SCc2sc(-c3ccc(C(F)(F)F)c(F)c3)nc2C)ccc1OCC(=O)O [GW-0742]
6. Cc1ccc(S(N)(=O)=O)cc1 [para-toluenesulfonamide]

Response given:
1: 97.8; 2: 96.3; 3: 102; 4: 102; 5: 97.9; 6: 97.7

// batch mode: one cell viability value per listed entry
1. O=C1NC(=O)C(c2cnc3ccccn23)=C1c1cn2c3c(cc(F)cc13)CN(C(=O)N1CCCCC1)CC2
2. O=C1C(Cl)=C(N2CCOCC2)C(=O)N1c1ccc(Cl)c(Cl)c1 [RI-1]
3. O=C(O)Cn1c2c(c3cc(F)ccc31)CN(C(=O)c1cccc3ccccc13)CC2 [setipiprant]
4. COC1CCN(c2cccc(-c3cc(NC(C)=O)nc(-n4nc(C)cc4C)n3)n2)CC1 [TC-G-1004]
5. CC(CCc1ccccc1)NC(C)C(O)c1ccc(O)cc1 (stereo not given) [buphenine]
6. FC(F)(F)c1ccc(Nc2ncnc3cc(-c4ncccc4C(F)(F)F)ccc23)cc1 [MK-2295]

Response given:
1. 99.5
2. 96.8
3. 102
4. 104
5. 100
6. 101

Entry source: the supplement of paper PMC13380429
